Tested on: LOX IMVI melanoma
Test: NCI-60 one-dose screen, 48 h (100 = growth as untreated, 0 = no growth, -100 = all killed)
Details: 10 µM unless noted
About 83,000 compounds went through this panel and 20% of them were active in at least one assay; those are over-represented in the sample as a whole.
As shown below, each of these compounds has a reported growth value.
Quick note: give the figure in %, leave out the unit.

Some entries whose results are on file:
CO[C@H]1NC(=O)N(S(=O)(=O)c2ccc(Cl)cc2)[C@@H]1OC; 105
NC1N=C(SCC(=O)N2CCN(c3cc4c(cc3F)c(=O)c(C(=O)O)cn4C3CC3)CC2)NC(=O)/C1=C/c1ccc(Cl)cc1 (configuration not stated); 102
CCOC(=O)/C(C#N)=C1/C(=O)Nc2ccccc21; 99
Cc1nn(-c2ccc(Cl)cc2)c2ncnc(N/N=C/c3cccc([N+](=O)[O-])c3)c12; 93.4

Identify growth associated with the compound `COc1cc(/C=C/C(=O)c2ccc(Nc3ncnc4cc(OC)c(OC)cc34)cc2)cc(OC)c1` 88.3

Identify growth associated with the compound CC(C)(C)NCCC(O)c1cc2c(Cl)cc(Cl)cc2c2cc(C(F)(F)F)ccc12 (configuration not stated) -70.7

Identify growth associated with the compound `CC(C)(C)n1cc(-c2ccnc(NCCCNS(=O)(=O)c3ccc(Br)cc3)c2)c(-c2cccc(O)c2)n1` -75.6

###

Test system: 786-0 renal
Assay: NCI-60 one-dose screen, 48 h
Conditions: 10 µM unless noted
The panel holds about 83,000 compounds, 20% with a hit somewhere; the sample as a whole holds those more often. The source made the active and inactive calls. Rule for the calls: active = growth percent below 10; inactive = the rest.
Please answer using one outcome listed in active, inactive

Worked examples follow.
COc1ccc(OC)c(/C=C2\Oc3cc(OCCCN4CCCC4)ccc3C2=O)c1; inactive
COc1ccc(-n2c(-c3ccccc3)c(-c3ccccc3)c3c(SCC(=O)N/N=C/c4ccc(Cl)cc4)ncnc32)cc1; inactive
OC(c1cc2cc(Br)ccc2c2cc(Br)ccc12)C1CCCCN1 (configuration not stated); active
COc1cc(Nc2nc(N[C@H]3CCCC[C@@H]3N)nc3cc[nH]c(=O)c23)cc(OC)c1; inactive
Brc1cccc(-c2cc(-c3ccc4c(c3)OCCCO4)[nH]n2)c1; inactive

Would you mind telling me which call this test gave COc1ccc2c(c1)NC1=C(C(=O)OC1)C2c1cc(OC)c2c(c1)OCO2 (configuration not stated) ? inactive

Would you mind telling me which call this test gave `O=C(O)c1nc(-c2ccccc2)oc1N1CCOCC1` ? inactive

###

Test system: SR leukemia
Assay: NCI-60 one-dose screen, 48 h
Details: 10 µM unless noted
This is part of a sample that, as a whole, favours compounds with a hit. Of some 83,000 tested, about 20% had one in any assay. Active and inactive are the calls of the source. How the source made its calls: active means growth percent below 10; inactive means the rest.
Please answer using one outcome listed in active, inactive

CN1C=CN(Cc2ccc(-c3ccccn3)nc2)[CH-]1.CN1C=CN(Cc2ccc(-c3ccccn3)nc2)[CH-]1.[Au+3]; inactive
O=C1/C(=C/c2ccccc2)Oc2ccc(O)c(I)c21; inactive
O=C(NCCCNc1nccc(-n2ccc3cccnc32)n1)c1c(F)cccc1F; inactive
COc1ccc2cc(-c3ccc(-c4ccc(C(=N)N)cc4)s3)ccc2c1; inactive
O=C(Nc1ccncc1)C(=O)c1cn(S(=O)(=O)c2ccc(Cl)cc2)c2ccccc12; inactive
Cc1ccc(-c2cc3nc(C(Cl)Cl)nc(-c4ccccc4C)n3n2)cc1; inactive
CC1CN(c2oc(-c3ccccc3)nc2C#N)CC(C)O1 (stereo not given); inactive
NC1=NC(SCc2ccccc2CCl)c2ncn(Cc3ccccc3CCl)c2N1 (stereo not given); active
COc1ccc(/C=C2\Oc3cc(OCCCN4CCCC4)ccc3C2=O)c(OC)c1; active
C/C=C/C1=CN2C(=O)c3cc(OC4OC(C)C(NC)C(C)(O)C4O)c(C)cc3N=C[C@@H]2C1 (stereo not given in full); active

Would you mind telling me which call this test gave CC12CCCC(CC(=O)c3[nH]c4ccccc4c31)C2 (stereo not given) ? inactive

Would you mind telling me which call this test gave C=C1CCC2C(C)(CO)C(O)CCC2(C)C1C/C=C1/C(=O)OCC1O/C=C/c1ccccc1 (stereo not given) ? inactive

Would you mind telling me which call this test gave `CC(C)(C)n1cc(-c2ccnc(NCCCNS(=O)(=O)c3cccc(F)c3)c2)c(-c2cccc(O)c2)n1` ? inactive

Would you mind telling me which call this test gave `CC(C)(C)n1cc(-c2ccnc(NCCNS(=O)(=O)c3ccc(C(F)(F)F)cc3)c2)c(-c2cccc(O)c2)n1` ? active

Would you mind telling me which call this test gave `OB(O)c1cccc(-c2nc3ccc4[nH]ncc4c3c3c2CCCC3)c1F` ? inactive

###

Test system: SN12C renal
Test: NCI-60 one-dose screen, 48 h
Conditions: 10 µM unless noted
This is part of a sample that, as a whole, favours compounds with a hit. Of some 83,000 tested, about 20% had one in any assay. The source made the active and inactive calls. How the source made its calls: active means growth percent below 10; inactive means the rest.
Please answer using one outcome listed in active, inactive

Worked examples follow.
O=C(O)c1cn(C2CC2)c2cc(N3CCN(C(=O)/C=C/c4ccc(Cl)cc4)CC3)c(F)cc2c1=O; inactive
CC(C)(C)n1cc(-c2ccnc(NCCCNS(=O)(=O)c3ccccc3)c2)c(-c2cccc(O)c2)n1; inactive
C=C1CCC[C@]2(C)CCC[C@H](C)[C@@H](OC(C)=O)[C@@H]3OC(=O)C(=C)[C@@H]3C[C@H]1O2; inactive
CCCOC(=O)n1cccc1; inactive
CCCCNC(=O)Oc1ccc(/C(=C(\C)c2ccccc2)c2ccc(OCCN(CC)CC)cc2)cc1; inactive
O=C1c2c(Cl)c(Cl)c(Cl)c(Cl)c2C(=O)C2(Cl)CC=CCC12Cl (stereo unspecified); inactive
COc1cc2c(c(OC)c1OC)-c1ccc(N)c(=O)cc1[C@@H](NC(C)=O)CC2; inactive
O=C(O)COc1ccc(-c2cssc2=S)cc1; inactive

Would you mind telling me which call this test gave `O=[N+]([O-])c1ccc(OCCCOc2ccccc2)cc1` ? inactive

###

Tested on: OVCAR-4 ovarian
Assay: NCI-60 one-dose screen, 48 h (100 = growth as untreated, 0 = no growth, -100 = all killed)
Conditions: 10 µM unless noted
This is part of a sample that, as a whole, favours compounds with a hit. Of some 83,000 tested, about 20% had one in any assay.
assay-endpoint: growth (%)
Quick note: give the figure in %, leave out the unit.

CCOC(=O)c1ccc(NC(=O)N2CC(C)OC(C)C2)cc1 (configuration not stated); 96.8
COc1ccc(-c2c(-c3cc(OC)c4c(c3)OCO4)noc2N)cc1; 34.4
Clc1ccccc1-c1nc2ccccc2[nH]1; 96.9
COc1ccc(CN2CCc3c(Sc4ccccc4)nc(N)nc3C2=O)c(OC)c1; 44.3
CCN(CC)CCOc1ccc(/C(=C(/C)c2ccccc2)c2ccc(OC(C)=O)cc2)cc1; 100

Identify growth associated with the compound `Nc1nc(=O)c2ccccc2s1` 125

Identify growth associated with the compound CSc1nc2c(c(=O)[nH]1)C(c1ccc(C)cc1)C=C(C(=O)O)N2 (configuration not stated) 113

Identify growth associated with the compound CC1=C(C#N)C(=O)NC(C)C1 (configuration not stated) 110

Identify growth associated with the compound `O=S(=O)(NCCCNc1nccc(-n2ccc3cccnc32)n1)c1cccc(C(F)(F)F)c1` 101

Identify growth associated with the compound `COc1cc(-c2nn(-c3cccc(NC(=O)Nc4cccc(C(F)(F)F)c4)c3)cc2-c2ccncc2)ccc1Cl` 11.1

Identify growth associated with the compound `O=[N+]([O-])c1ccc(Sc2ncccn2)c([N+](=O)[O-])c1` 51.8

Identify growth associated with the compound `C=C1C(=O)O[C@H]2[C@H]1CC/C(Cn1cc(CNC(=O)Cc3cn(C(=O)c4ccc(Cl)cc4)c4ccc(OC)cc34)nn1)=C\CC[C@@]1(C)O[C@@H]21` 18.8

Identify growth associated with the compound `C=C[C@@H]1C[C@H](O)Cc2cc(F)ccc2N1` 101

Identify growth associated with the compound CCC(C)/C(=C\C#N)NCCCN/C(=C/C#N)C(C)CC (configuration not stated) 109

Identify growth associated with the compound CCCCCCCCCCCCCCCCCCNC(=O)[C@H]1CSC(c2ccc(OC)cc2O)N1 (some centres not stated) 84.6

Identify growth associated with the compound `COc1ccc(NC(=O)c2c(Nc3ccc(OC)cc3OC)n[nH]c2N)c(OC)c1` 102

Identify growth associated with the compound `CCOC(=O)NNC(=S)Nc1ccccc1` 100

###

Tested on: OVCAR-3 ovarian
Experiment: NCI-60 one-dose screen, 48 h (100 = growth as untreated, 0 = no growth, -100 = all killed)
Settings: 10 µM unless noted
Compounds without any hit were thinned out: in the full panel of roughly 83,000, 20% have a hit.
assay-endpoint: growth (%)
Quick note: give the figure in %, leave out the unit.

C=C1CCC[C@]2(C)CCC[C@H](C)[C@@H](OC(C)=O)[C@@H]3OC(=O)C(=C)[C@@H]3C[C@H]1O2; 47.9
C=CCSc1n[nH]c(-c2cccs2)n1; 115

Enter recorded growth with OVCAR-3 ovarian for `FC(F)(F)c1cccc(-c2cn3c(ccc4ccccc43)n2)c1` here. 97.2

Enter recorded growth with OVCAR-3 ovarian for `N/C(=N\C(N)=N\c1nc2ccccc2s1)c1cccc(Br)c1` here. 103

Enter recorded growth with OVCAR-3 ovarian for `O=C(NNC(=O)N1c2ccccc2C=Cc2ccccc21)c1ccccc1` here. 113

Where do these numbers come from? They come from PubChem BioAssay (NCI).
